Data provenance: ChEMBL document CHEMBL3124815

System: RAF proto-oncogene serine/threonine-protein kinase (Homo sapiens, UniProt P04049)
Sequence (P04049 whole entry): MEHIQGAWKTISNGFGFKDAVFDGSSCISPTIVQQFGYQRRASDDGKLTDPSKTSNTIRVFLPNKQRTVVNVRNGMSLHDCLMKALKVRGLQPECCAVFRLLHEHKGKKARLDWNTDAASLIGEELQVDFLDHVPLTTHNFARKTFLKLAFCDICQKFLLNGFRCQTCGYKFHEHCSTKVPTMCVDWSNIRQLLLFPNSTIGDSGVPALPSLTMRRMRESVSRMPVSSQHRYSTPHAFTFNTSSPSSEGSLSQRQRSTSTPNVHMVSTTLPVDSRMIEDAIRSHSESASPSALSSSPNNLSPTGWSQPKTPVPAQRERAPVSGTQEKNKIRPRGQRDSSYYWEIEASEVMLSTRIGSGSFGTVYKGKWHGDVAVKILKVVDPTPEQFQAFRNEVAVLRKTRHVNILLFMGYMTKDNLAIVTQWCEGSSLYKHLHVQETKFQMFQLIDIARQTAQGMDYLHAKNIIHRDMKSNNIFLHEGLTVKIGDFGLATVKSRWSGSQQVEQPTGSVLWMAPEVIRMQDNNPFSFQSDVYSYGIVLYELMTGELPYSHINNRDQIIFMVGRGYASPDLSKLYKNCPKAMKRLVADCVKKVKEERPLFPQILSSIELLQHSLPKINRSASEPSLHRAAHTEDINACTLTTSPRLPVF
Experiment description: Inhibition of N-terminal FLAG-tagged wild type C-RAF (unknown origin) expressed in baculovirus system using GST-MEK1(K96R) as substrate after 20 mins
Outcome measure: IC50 (nM)
Answers are plain numbers, in nM.

Request: Which IC50 value belongs to `N#Cc1c(Oc2ccc(F)c(NC(=O)Cc3cccc(C(F)(F)F)c3)c2)ccc2nc(NC(=O)C3CC3)sc12` ?
Result: 1.4

====

System: UniProt P49841
Sequence (P49841 whole entry): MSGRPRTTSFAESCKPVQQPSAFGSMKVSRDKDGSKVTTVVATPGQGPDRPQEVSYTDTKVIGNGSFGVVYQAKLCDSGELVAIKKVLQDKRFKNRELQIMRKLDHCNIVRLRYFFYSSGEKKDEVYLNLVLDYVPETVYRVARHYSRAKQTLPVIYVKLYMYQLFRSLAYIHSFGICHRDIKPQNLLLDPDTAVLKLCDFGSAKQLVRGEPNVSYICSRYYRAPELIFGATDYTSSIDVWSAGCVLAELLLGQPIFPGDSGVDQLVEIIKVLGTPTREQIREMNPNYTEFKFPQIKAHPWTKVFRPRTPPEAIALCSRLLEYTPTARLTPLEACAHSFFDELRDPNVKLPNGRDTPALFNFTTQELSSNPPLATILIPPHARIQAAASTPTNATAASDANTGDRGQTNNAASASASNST
Outcome measure: IC50 (nM)
Answers are plain numbers, in nM.

Request: Which IC50 value belongs to `N#Cc1c(Oc2ccc(F)c(NC(=O)Cc3cccc(C(F)(F)F)c3)c2)ccc2nc(NC(=O)C3CC3)sc12` ?
Result: 500

====

Experiment description: Solubility of the compound in phosphate buffer at pH 6.8
Type: physicochemical
Outcome measure: solubility

Request: Which solubility value belongs to `N#Cc1c(Oc2ccc(F)c(NC(=O)Cc3cccc(C(F)(F)F)c3)c2)ccc2nc(NC(=O)C3CC3)sc12` ?
Result: < 0.02 µg/mL

====

System: Mitogen-activated protein kinase 3 (Homo sapiens)
Sequence (P27361 whole entry): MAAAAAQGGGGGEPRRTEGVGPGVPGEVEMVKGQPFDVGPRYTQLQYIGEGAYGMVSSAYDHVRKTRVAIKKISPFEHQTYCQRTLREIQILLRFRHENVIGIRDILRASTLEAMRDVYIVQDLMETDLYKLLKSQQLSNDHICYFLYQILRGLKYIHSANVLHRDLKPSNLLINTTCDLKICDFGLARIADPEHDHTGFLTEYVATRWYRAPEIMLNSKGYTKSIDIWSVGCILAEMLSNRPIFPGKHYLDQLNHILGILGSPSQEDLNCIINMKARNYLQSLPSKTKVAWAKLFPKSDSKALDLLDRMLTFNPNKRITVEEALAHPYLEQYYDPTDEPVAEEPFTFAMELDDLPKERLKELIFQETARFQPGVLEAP
Experiment description: Inhibition of C-terminal FLAG-tagged ERK1 expressed in baculovirus system (unknown origin) using MBP as substrate after 60 mins
Outcome measure: IC50

Request: Param readout = IC50; param system = Mitogen-activated protein kinase 3 (Homo sapiens); param query = `N#Cc1c(Oc2ccc(F)c(NC(=O)Cc3cccc(C(F)(F)F)c3)c2)ccc2nc(NC(=O)C3CC3)sc12` ; response: value
Result: > 10 µM

====

System: Serine/threonine-protein kinase B-raf (Homo sapiens, UniProt P15056, V600E)
Sequence (P15056 2-766 V600E limits assumed): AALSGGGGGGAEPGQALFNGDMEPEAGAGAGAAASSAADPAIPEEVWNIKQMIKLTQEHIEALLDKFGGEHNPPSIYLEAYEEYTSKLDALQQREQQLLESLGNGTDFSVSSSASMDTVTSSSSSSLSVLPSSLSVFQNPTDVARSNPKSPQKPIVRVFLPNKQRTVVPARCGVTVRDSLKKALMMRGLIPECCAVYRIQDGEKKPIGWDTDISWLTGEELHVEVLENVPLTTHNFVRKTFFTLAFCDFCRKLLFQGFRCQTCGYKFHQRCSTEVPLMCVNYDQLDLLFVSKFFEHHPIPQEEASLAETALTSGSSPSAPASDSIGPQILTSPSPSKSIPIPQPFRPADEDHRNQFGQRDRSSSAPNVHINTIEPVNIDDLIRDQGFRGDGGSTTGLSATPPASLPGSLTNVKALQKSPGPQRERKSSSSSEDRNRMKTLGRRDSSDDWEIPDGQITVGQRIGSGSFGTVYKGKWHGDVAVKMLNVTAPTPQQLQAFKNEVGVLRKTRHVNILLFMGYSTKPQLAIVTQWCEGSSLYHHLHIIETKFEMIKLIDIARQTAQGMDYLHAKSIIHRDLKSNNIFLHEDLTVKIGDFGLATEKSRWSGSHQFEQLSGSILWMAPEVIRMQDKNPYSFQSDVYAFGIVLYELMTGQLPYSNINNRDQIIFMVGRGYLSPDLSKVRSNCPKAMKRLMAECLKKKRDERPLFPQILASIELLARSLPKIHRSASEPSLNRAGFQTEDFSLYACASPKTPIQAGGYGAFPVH
Experiment description: Inhibition of BRAF V600E mutant in human HT-29 cells assessed as phosphorylation of MEK
Type: cell-based
Outcome measure: pIC50
Answers are plain numbers, as −log10 of the molar value.

The examples below pair each entry with its known result.
- N#Cc1c(Oc2cccc(NC(=O)Nc3ccc(C(F)(F)F)cc3)c2)ccc2nc(NC(=O)C3CC3)sc12: 6.96
- COC(=O)c1c(Oc2cccc(NC(=O)c3cccc(C(C)(C)C#N)c3)c2)ccc2nc(NC(=O)C3CC3)sc12: 7.62
- N#Cc1c(Oc2ccc(F)c(NC(=O)Nc3ccc(C(F)(F)F)cc3)c2)ccc2nc(NC(=O)C3CC3)sc12: 7.09
- N#Cc1c(Oc2ccc(F)c(NC(=O)Nc3cccc(C(F)(F)F)c3)c2)ccc2nc(NC(=O)C3CC3)sc12: 7.66
- CC(C)(C#N)c1cccc(C(=O)Nc2cccc(Oc3ccc4nc(NC(=O)C5CC5)sc4c3CO)c2)c1: 6.77
- N#Cc1c(Oc2cccc(NC(=O)Nc3cccc(C(F)(F)F)c3)c2)ccc2nc(NC(=O)C3CC3)sc12: 7.12
- N#Cc1c(Oc2cccc(NC(=O)Cc3cccc(C(F)(F)F)c3)c2)ccc2nc(NC(=O)C3CC3)sc12: 6.44
- CC(C)(C#N)c1cccc(C(=O)Nc2cccc(Oc3ccc4nc(NC(=O)C5CC5)sc4c3C#N)c2)c1: 7.47

// for each compound in input: emit pIC50
1. CC(C)(C#N)c1cccc(C(=O)Nc2cccc(Oc3ccc4nc(NC(=O)C5CC5)sc4c3[N+](=O)[O-])c2)c1
2. N#Cc1c(Oc2cccc(NC(=O)Cc3ccc(C(F)(F)F)cc3)c2)ccc2nc(NC(=O)C3CC3)sc12
3. N#Cc1c(Oc2ccc(F)c(NC(=O)Cc3cccc(C(F)(F)F)c3)c2)ccc2nc(NC(=O)C3CC3)sc12

Result:
1. 7.54
2. 6.49
3. 7.12
